- Assay overview: activity coefficient (dimensionless); of the first substance listed, at infinite dilution; xn = mol fraction of the nth substance listed
- Settings: 343.15 K; Liquid; Chromatography; x1 = 0
Would you mind labelling by activity coefficient? At or over 2 is T, under is F.

// known answers, use as guide
1. CC(C)OC(C)C [diisopropyl ether] + CN(C)c1cc[n+](COCCCOC[n+]2ccc(N(C)C)cc2)cc1.O=S(=O)([N-]S(=O)(=O)C(F)(F)F)C(F)(F)F.O=S(=O)([N-]S(=O)(=O)C(F)(F)F)C(F)(F)F : T
2. CCCCO [butan-1-ol] + Cn1cc[n+](COCCCOC[n+]2ccn(C)c2)c1.N#C[N-]C#N.N#C[N-]C#N : F
3. C#CCCCCC [1-heptyne] + Cn1cc[n+](COCCCOC[n+]2ccn(C)c2)c1.N#C[N-]C#N.N#C[N-]C#N : T
4. CCc1ccccc1 [ethylbenzene] + CCCCCCCCn1cc[n+](COCCC)c1C.O=S(=O)([N-]S(=O)(=O)C(F)(F)F)C(F)(F)F : F
5. CCCO [propan-1-ol] + CCCOC[n+]1ccn(Cc2ccccc2)c1.N#C[N-]C#N : F

In the following, a different molecule is considered.
# input Say whether C#CCCCCC [1-heptyne] + CCCCCCCCn1cc[n+](COCCCOC[n+]2ccn(CCCCCCCC)c2C)c1C.N#C[N-]C#N.N#C[N-]C#N shows activity coefficient of 2 or more.
# output T
